system: PRKACA-PRKAR2A interaction (SmBiT-PRKACA / LgBiT-PRKAR2A), protein kinase A; parameters: NanoLuc complementation counter-screen in cell extract, PRKACA with PRKAR2A, loss of luminescence, detects NanoLuc interference; conditions: counter-screen for NanoLuc interference; 0.5 h, 20 µM; inhibitor
Counter-ions that a name gives are not always drawn.
Reported metric: Inh (PKA) (%)
The figure you give is taken to be in %; do not add the unit.

q: I would be grateful if you could share the reported Inh (PKA) for O=C(O)c1cc(O)c2c(c1)[C@@H]([C@H]1c3cc(C(=O)O)cc(O)c3C(=O)c3c(O[C@@H]4O[C@H](CO)[C@@H](O)[C@H](O)[C@H]4O)cccc31)c1cccc(O[C@@H]3O[C@H](CO)[C@@H](O)[C@H](O)[C@H]3O)c1C2=O [UM0142851:01, Sennoside B] .
a: 36.22

q: Check "OC[C@@H](O)[C@H](O)[C@@H](O)CO" too.
a: -1.935

q: Check CCCc1nc(C)c2c(O)nc(-c3cc(S(=O)(=O)N4CCN(CC)CC4)ccc3OCC)nn12 [UM0141782:01, Vardenafil HCl Trihydrate] too.
a: 3.783

q: Check "COC(=O)[C@]12CCC(C)(C)C[C@H]1[C@H]1C(=O)C=C3[C@@]4(C)C=C(C#N)C(=O)C(C)(C)[C@@H]4CC[C@@]3(C)[C@]1(C)CC2" too.
a: 12.18

q: Check "c1c[nH]cn1" too.
a: 0.004759

q: Check "CCCCOc1ccc(CC(=O)NO)cc1" too.
a: 1.558

====

system: PRKACA-PRKAR2A interaction (SmBiT-PRKACA / LgBiT-PRKAR2A), protein kinase A; design: NanoLuc complementation counter-screen in cell extract, PRKACA with PRKAR2A, loss of luminescence, detects NanoLuc interference; conditions: counter-screen for NanoLuc interference; 0.5 h, 20 µM; inhibitor
Reported metric: Inh (PKA) (%)
The figure you give is taken to be in %; do not add the unit.

q: I would be grateful if you could share the reported Inh (PKA) for "Nc1ccc(S(=O)(=O)Nc2ccnn2-c2ccccc2)cc1" .
a: 2.527

q: Check "CNC(=O)c1ccc2cc([C@@]3(O)CCn4cncc43)ccc2c1" too.
a: 0.0216

q: Check "COC1=C2C[C@@H](C)C[C@H](OC)[C@H](O)[C@@H](C)/C=C(\C)[C@H](OC(N)=O)[C@@H](OC)/C=C\C=C(/C)C(=O)NC(=CC1=O)C2=O" too.
a: 5.017

q: Check CCN[C@H]1CN(CCCOC)S(=O)(=O)c2sc(S(N)(=O)=O)cc21 [UM0118906:03, Brinzolamide] too.
a: -0.219

q: Check "O=C1CCc2c(ccc3ccccc23)O1" too.
a: 1.175

q: Check CCCCC(=O)O[C@H]1CC[C@H]2[C@@H]3CCc4cc(O)ccc4[C@H]3CC[C@]12C [UM0142282:01, Estradiol valerate] too.
a: 9.885

q: Check "O=c1cc(-c2cccc3c2Sc2ccccc2S3)oc(N2CCOCC2)c1" too.
a: 14.3

====

I'd be grateful if you could share measured Inh (PKA) for these entries.
test system: PRKACA-PRKAR2A interaction (SmBiT-PRKACA / LgBiT-PRKAR2A), protein kinase A; parameters: NanoLuc complementation counter-screen in cell extract, PRKACA with PRKAR2A, loss of luminescence, detects NanoLuc interference; conditions: counter-screen for NanoLuc interference; 0.5 h, 20 µM; inhibitor
Numbered stars: 1 amine (or outer) side, 2 acyl side, 3 side chain; on linkers, the order of the positions; unused ones are H or OH. Bridge positions count the residues as written; N and C are the ends. Square brackets hold non-standard residues; d marks the D form. Peptide text beside a SMILES is read from it. * marks the point of attachment. hTyr(3S-OH,4S-OH,3'-OSO3H) = N[C@H](C(=O)O)[C@H](O)[C@@H](O)c1ccc(O)c(OS(=O)(=O)O)c1; Orn(4R-OH,5R-OH) = O=C([C@H](C[C@@H](O)[C@@H](O)N[*:3])N[*:1])[*:2]; Pro(3S-OH,4S-Me) = C[C@H]1CN[C@H](C(=O)O)[C@H]1O; X1 = CCCCCOc1ccc(-c2cc(-c3ccc(C(=O)*)cc3)no2)cc1; Gln(3R-OH) = NC(=O)C[C@@H](O)[C@H](N)C(=O)O; Hyp = O=C(O)[C@@H]1C[C@@H](O)CN1
The figure you give is taken to be in %; do not add the unit.

q: I would be grateful if you could share the reported Inh (PKA) for "COc1ccc(C2=N[C@@H](c3ccc(Cl)cc3)[C@@H](c3ccc(Cl)cc3)N2C(=O)N2CCNC(=O)C2)c(OC(C)C)c1" .
a: 1.968

q: Check O=C(Nc1ccc(-c2ccnc(Nc3ccc(N4CCOCC4)cc3)n2)cc1)C1CCCN1 (centres unmarked) too.
a: -3.897

q: Check "COc1ncc(-c2ccc3nccc(-c4ccnnc4)c3c2)cc1NS(=O)(=O)c1ccc(F)cc1F" too.
a: 7.374

q: Check "Cc1n[nH]c2ccc(-c3cncc(OC[C@@H](N)Cc4c[nH]c5ccccc45)c3)cc12" too.
a: 34.74

q: Check "Cc1nc(Nc2ncc(C(=O)Nc3c(C)cccc3Cl)s2)cc(N2CCN(CCO)CC2)n1" too.
a: 9.592

q: Check "O=C(Nc1cc(Cl)cc2c1[nH]c1cnccc12)c1cccnc1" too.
a: 3.261

q: Check "Cc1ccc([C@@H]2O[C@H](CO)[C@@H](O)[C@H](O)[C@H]2O)cc1Cc1ccc(-c2ccc(F)cc2)s1" too.
a: 13.33

q: Check CCCCCOc1ccc(-c2cc(-c3ccc(C(=O)N[C@H]4C[C@@H](O)[C@@H](O)NC(=O)[C@@H]5[C@@H](O)[C@@H](C)CN5C(=O)[C@H]([C@H](O)CC(N)=O)NC(=O)[C@H]([C@H](O)[C@@H](O)c5ccc(O)c(OS(=O)(=O)O)c5)NC(=O)[C@@H]5C[C@@H](O)CN5C(=O)[C@H]([C@@H](C)O)NC4=O)cc3)no2)cc1 [UM0141585:01, Micafungin sodium] (X1-[Orn(4R-OH,5R-OH)]T[Hyp][hTyr(3S-OH,4S-OH,3'-OSO3H)][Gln(3R-OH)][Pro(3S-OH,4S-Me)]; lactam 1-C) too.
a: 7.755

q: Check "Cc1ccc(C(=O)OCc2ccc([C@@H](CN)C(=O)Nc3ccc4cnccc4c3)cc2)c(C)c1" too.
a: 32.51

q: Check CN1CCN(CCCN2c3ccccc3Sc3ccc(C(F)(F)F)cc32)CC1 [UM0118432:03, Trifluoperazine 2HCl] too.
a: 8.71

q: Check "CN(C)CCCCC(=O)Nc1ccc(NC(=S)NC(=O)c2ccc(C(C)(C)C)cc2)cc1" too.
a: 9.354
